MEASUREMENT_CONDITIONS: human
VALUE_KIND: Hepatotoxicity (cytolytic)
Answers are plain numbers.

Sample answers from the record:
[[record]]
molecule = "C[C@]12C/C(=C/O)C(=O)C[C@@H]1CC[C@@H]1[C@@H]2CC[C@@]2(C)[C@H]1CC[C@]2(C)O"
readout_value = 1

[[record]]
molecule = "NCC[C@H](O)C(=O)N[C@@H]1C[C@H](N)[C@@H](O[C@H]2O[C@H](CN)[C@@H](O)[C@H](O)[C@H]2O)[C@H](O)[C@H]1O[C@H]1O[C@H](CO)[C@@H](O)[C@H](N)[C@H]1O"
readout_value = 0


Each of the following entries comes with a recorded value; kindly state Hepatotoxicity (cytolytic) for each.
1. CCOC(Nc1ccc(C(=O)O)cc1)C(=O)c1ccc(-c2ccccc2)cc1 (centres undefined)
2. CN1CCN(C(=O)OC2c3nccnc3C(=O)N2c2ccc(Cl)cn2)CC1 (centres undefined)
3. COc1ccc(Cl)cc1C(=O)NCCc1ccc(S(=O)(=O)NC(=O)NC2CCCCC2)cc1 [GLYBURIDE]
4. CC(=O)N[C@H]1[C@@H](O[C@H]2[C@H](O)[C@@H](O)[C@H](O[C@H]3[C@H](CS(=O)(=O)O)[C@@H](OS(=O)(=O)O)[C@@H](O[C@H]4[C@H](O)[C@@H](OS(=O)(=O)O)C(O)O[C@H]4C(=O)O)O[C@@H]3O)O[C@@H]2C(=O)O)O[C@H](COS(=O)(=O)O)[C@@H](O)[C@@H]1O (some centres undefined) [SODIUM HEPARIN]
5. COCC1=C(C(=O)O)N2C(=O)[C@@H](NC(=O)/C(=N\OC)c3csc(N)n3)[C@H]2SC1
6. CC1(C)[C@@H](OC(=O)CCC(=O)O)CC[C@]2(C)[C@H]3C(=O)C=C4[C@@H]5C[C@@](C)(C(=O)O)CC[C@]5(C)CC[C@@]4(C)[C@]3(C)CC[C@@H]12
7. O=C(O)c1cccnc1Nc1cccc(C(F)(F)F)c1

Reply |
[0, 1, 2, 3, 0, 0, 4]

---

MEASUREMENT_CONDITIONS: human, Liver
Output Met for records whose Hepatotoxicity (severe hepatitis) is lower than 1, Not met for records at or above 1.

[[record]]
compound = "CC(C)(C)NCC(O)c1ccc(O)c(CO)c1 (configuration not stated)"
class_name = "Met"


Ask | In the record for CNCCC=C1c2ccccc2CCc2ccccc21 , is Hepatotoxicity (severe hepatitis) less than 1?
Reply | Not met

Ask | In the record for O=C1CC[C@@]2(O)[C@H]3Cc4ccc(O)c5c4[C@@]2(CCN3CC2CC2)[C@H]1O5 [NALTREXONE] , is Hepatotoxicity (severe hepatitis) less than 1?
Reply | Met

Ask | In the record for OCCOCCN1CCN(C2=Nc3ccccc3Sc3ccccc32)CC1 , is Hepatotoxicity (severe hepatitis) less than 1?
Reply | Met

Ask | In the record for Nc1ncn([C@@H]2O[C@H](CO)[C@@H](O)[C@@H]2O)c(=O)n1 , is Hepatotoxicity (severe hepatitis) less than 1?
Reply | Met

Ask | In the record for Cc1ccc(C(=O)c2cc(O)c(O)c([N+](=O)[O-])c2)cc1 , is Hepatotoxicity (severe hepatitis) less than 1?
Reply | Not met

Ask | In the record for C=C[C@H]1C[N@@]2CC[C@H]1C[C@@H]2[C@@H](O)c1ccnc2ccc(OC)cc12 , is Hepatotoxicity (severe hepatitis) less than 1?
Reply | Not met

Ask | In the record for O=C1Nc2ccc(Cl)cc2C(c2ccccc2)=NC1O (configuration not stated) , is Hepatotoxicity (severe hepatitis) less than 1?
Reply | Met

Ask | In the record for CSCC[C@H](N)C(=O)O , is Hepatotoxicity (severe hepatitis) less than 1?
Reply | Met

Ask | In the record for CC(C)OC(=O)C(C)(C)Oc1ccc(C(=O)c2ccc(Cl)cc2)cc1 [FENOFIBRATE] , is Hepatotoxicity (severe hepatitis) less than 1?
Reply | Met

Ask | In the record for CC(=O)O[C@H]1C(=O)[C@@]2(C)[C@H]([C@H](OC(=O)c3ccccc3)[C@]3(O)C[C@H](OC(=O)[C@H](O)[C@@H](NC(=O)c4ccccc4)c4ccccc4)C(C)=C1C3(C)C)[C@]1(OC(C)=O)CO[C@@H]1C[C@@H]2O , is Hepatotoxicity (severe hepatitis) less than 1?
Reply | Met

---

For each entry below, report its Hepatotoxicity (moderate) value.
MEASUREMENT_CONDITIONS: human, serum
Answers are plain numbers.

[[record]]
molecule = "O=C(O)CCc1nc(-c2ccccc2)c(-c2ccccc2)o1"
value_kind = "Hepatotoxicity (moderate)"
readout_value = 4

[[record]]
molecule = "CO[C@@]1(NC(=O)CSC[C@@H](N)C(=O)O)C(=O)N2C(C(=O)O)=C(CSc3nnnn3C)CS[C@@H]21"
value_kind = "Hepatotoxicity (moderate)"
readout_value = 12

[[record]]
molecule = "O=C(COc1ccc(Cl)cc1)N1CCN(Cc2ccc3c(c2)OCO3)CC1 [FIPEXIDE]"
value_kind = "Hepatotoxicity (moderate)"
readout_value = 0

[[record]]
molecule = "CNC1(c2ccccc2Cl)CCCCC1=O (configuration not stated)"
value_kind = "Hepatotoxicity (moderate)"
readout_value = 2

[[record]]
molecule = "C[C@H]1C[C@H]2[C@@H]3CCC4=CC(=O)C=C[C@]4(C)[C@@]3(F)[C@@H](O)C[C@]2(C)[C@@]1(O)C(=O)CO"
value_kind = "Hepatotoxicity (moderate)"
readout_value = 0

[[record]]
molecule = "CC(CN1c2ccccc2Sc2ccccc21)N(C)C (configuration not stated)"
value_kind = "Hepatotoxicity (moderate)"
readout_value = 0


Ask | Data request, read-out Hepatotoxicity (moderate), for CC(Cc1ccccc1)NCc1ccccc1Cl (configuration not stated)
Reply | 0

---

MEASUREMENT_CONDITIONS: human, serum
# label = 1 if Hepatotoxicity (moderate) >= 2 else 0

// below: answered compounds
[[record]]
compound = "S=P(N1CC1)(N1CC1)N1CC1 [THIOTEPA]"
class_name = 0

[[record]]
compound = "CC(C(=O)Nc1cc(-c2ccccc2)nn1-c1ccccc1)N(C)C (stereo not given) [DIFENAMIZOLE]"
class_name = 0

[[record]]
compound = "CN(c1nccc(=O)[nH]1)C1CCN(c2nc3ccccc3n2Cc2ccc(F)cc2)CC1 [MIZOLASTINE]"
class_name = 0


Ask | Does the compound CN(C)CCN1C(=O)c2cccc3cc(N)cc(c23)C1=O [AMONAFIDE] have recorded Hepatotoxicity (moderate) that is 2 or more?
Reply | 1

Ask | Does the compound CCOc1ccc2ccccc2c1C(=O)N[C@@H]1C(=O)N2[C@@H]1SC(C)(C)[C@@H]2C(=O)O [NAFCILLIN] have recorded Hepatotoxicity (moderate) that is 2 or more?
Reply | 1

Ask | Does the compound COc1ccc2c(C(=O)c3ccc(Cl)cc3)c(C)n(CC(=O)O)c2c1 [CLOMETACIN] have recorded Hepatotoxicity (moderate) that is 2 or more?
Reply | 1

Ask | Does the compound Nc1ccc(S(N)(=O)=O)cc1 [SULFANILAMIDE] have recorded Hepatotoxicity (moderate) that is 2 or more?
Reply | 0

Ask | Does the compound COc1cc(C(=S)N2CCOCC2)cc(OC)c1OC [TRITIOZINE] have recorded Hepatotoxicity (moderate) that is 2 or more?
Reply | 0

Ask | Does the compound CCc1nc(N)nc(N)c1-c1ccc(Cl)cc1.COc1ncnc(NS(=O)(=O)c2ccc(N)cc2)c1OC have recorded Hepatotoxicity (moderate) that is 2 or more?
Reply | 1

---

MEASUREMENT_CONDITIONS: human, serum
For each entry below, report its Hepatotoxicity (moderate) value.
One number for each entry.

[[record]]
compound = "Nc1nc2[nH]cc(CCc3ccc(C(=O)N[C@@H](CCC(=O)O)C(=O)O)cc3)c2c(=O)[nH]1"
value_kind = "Hepatotoxicity (moderate)"
readout_value = 1


Each of the following entries comes with a recorded value; kindly state Hepatotoxicity (moderate) for each.
1. NCC[C@H](O)C(=O)N[C@@H]1C[C@H](N)[C@@H](O[C@H]2O[C@H](CN)[C@@H](O)[C@H](O)[C@H]2O)[C@H](O)[C@H]1O[C@H]1O[C@H](CO)[C@@H](O)[C@H](N)[C@H]1O
2. O=C(O)Cc1cn(-c2ccccc2)nc1-c1ccc(Cl)cc1
3. O=C(NCCN1CCOCC1)c1ccc(Cl)cc1 [MOCLOBEMIDE]
4. Cc1cc(C(=O)NNCc2ccccc2)no1

Reply |
6
0
1
1

Each of the following entries comes with a recorded value; kindly state Hepatotoxicity (moderate) for each.
1. COCCCOc1ccnc(C[S+]([O-])c2nc3ccccc3[nH]2)c1C (stereo not drawn)
2. C[C@@H](O)[C@H]1C(=O)N2C(C(=O)[O-])=C(SC3Cn4cnc[n+]4C3)[C@H](C)[C@H]12 (stereo partly drawn)
3. CS(=O)(=O)c1ccc2c(c1)N(CCCN1CCC(C(N)=O)CC1)c1ccccc1S2
4. CNc1nc(N(C)C)nc(N(C)C)n1
5. c1ccc(C2(c3ccccc3)CC2C2=NCCN2)cc1 (stereo not drawn)
6. C[C@]12CC[C@@H]3c4ccc(OS(=O)(=O)O)cc4CC[C@H]3[C@@H]1CCC2=O

Reply |
1: 0; 2: 56; 3: 0; 4: 1; 5: 2; 6: 5

Each of the following entries comes with a recorded value; kindly state Hepatotoxicity (moderate) for each.
1. Cc1c(C)c2c(c(C)c1O)CCC(C)(COc1ccc(CC3SC(=O)NC3=O)cc1)O2 (stereo not drawn)
2. CC(C)c1cccc(C(C)C)c1O
3. CC(C)(C)NC(=O)[C@@H]1CN(Cc2cccnc2)CCN1C[C@@H](O)C[C@@H](Cc1ccccc1)C(=O)N[C@H]1c2ccccc2C[C@H]1O.O
4. Nc1ccn([C@@H]2O[C@H](CO)[C@@H](O)[C@@H]2O)c(=O)n1
5. Cc1nc(NS(=O)(=O)c2ccc(N)cc2)oc1C
6. O=C(NO)c1ccc(O)c(O)c1

Reply |
[18, 0, 5, 33, 0, 1]

Ask | Data request, read-out Hepatotoxicity (moderate), for Cc1ccnc2c1NC(=O)c1cccnc1N2C1CC1
Reply | 18

Value source: ChEMBL document CHEMBL3137667
